# Target Under Test: PE-labeled human PD-L1-Ig binding to Jurkat cell line over-expressing human PD-1 (Jurkat-PD-1) (Homo sapiens)
# Construct: expressed in transfected cells; host or cells: Jurkat
# Method Notes: Jurkat-PD-1 Cell Binding High-Content Screening Assay (CBA): Method 1
# Test Parameters: Jurkat-hPD-1 cells, PE-labeled PD-L1-Ig 20 nM final; read-out: Jurkat HPDL1 PD1 IC50 (uM) (Method 1)
Bridge positions count the residues as written; N and C are the ends. Square brackets hold non-standard residues; d marks the D form. Peptide text beside a SMILES is read from it. ξ: configuration not given here. Bip = N[C@@H](Cc1ccc(-c2ccccc2)cc1)C(=O)O; 4Pal = N[C@@H](Cc1ccncc1)C(=O)O; Thr(3ξ) = CC(O)[C@H](N)C(=O)O; NMeS = CN[C@@H](CO)C(=O)O; NMeA = CN[C@@H](C)C(=O)O; Orn = NCCC[C@H](N)C(=O)O; Dab = NCC[C@H](N)C(=O)O; Dap = NC[C@H](N)C(=O)O
What IC50 was measured for each of the following?
Just the number please, in µM, no unit attached.

Record summary for CC(C)C[C@@H]1NC(=O)[C@H](Cc2c[nH]c3ccccc23)NC(=O)[C@H](CC(=O)O)NC(=O)[C@H](Cc2ccc(O)cc2)NC(=O)[C@H](Cc2ccncc2)NC(=O)CSC[C@@H](C(=O)NCC(N)=O)NC(=O)[C@H](CO)NC(=O)[C@H](C(C)C)NC(=O)[C@H](CC(C)C)NC(=O)[C@H](CC(N)=O)NC(=O)[C@@H](C)NC(=O)[C@H](C)N(C)C(=O)[C@H](C(C)C)NC(=O)[C@H](Cc2ccc(-c3ccccc3)cc2)NC1=O [Compound 1722] ({CH2CO}-[4Pal]YDWL[Bip]V[NMeA][dA]NLVSCG-NH2; thioether N-14) : reported IC50 = 0.01

CC(C)C[C@@H]1NC(=O)[C@H](Cc2c[nH]c3ccccc23)NC(=O)[C@H](CC(=O)O)NC(=O)[C@H](Cc2ccc(O)cc2)NC(=O)[C@H](Cc2ccccc2)NC(=O)CSC[C@@H](C(=O)NCC(N)=O)NC(=O)[C@H](CO)NC(=O)[C@H](C(C)C)NC(=O)[C@H](CC(C)C)NC(=O)[C@H](CCN)NC(=O)[C@@H](CC(C)C)NC(=O)[C@H](C)N(C)C(=O)[C@H](C(C)C)NC(=O)[C@H](Cc2ccc(-c3ccccc3)cc2)NC1=O [Compound 1472] ({CH2CO}-FYDWL[Bip]V[NMeA][dL][Dab]LVSCG-NH2; thioether N-14) has a reported IC50 of 0.01

Lab book: IC50 of CC(C)C[C@@H]1NC(=O)[C@H](CCN)NC(=O)[C@@H](CC(C)C)NC(=O)[C@H](C)N(C)C(=O)[C@H](CCCN)NC(=O)[C@H](Cc2ccc(-c3ccccc3)cc2)NC(=O)[C@H](C(C)C)NC(=O)[C@H](Cc2c[nH]c3ccccc23)NC(=O)[C@H](CC(=O)O)NC(=O)[C@H](Cc2ccc(O)cc2)NC(=O)[C@H](CN)NC(=O)CSC[C@@H](C(=O)N[C@@H](C)C(N)=O)NC(=O)[C@H](C(C)O)NC(=O)[C@H](C(C)C)NC1=O (stereo partly drawn) [Compound 2080] ({CH2CO}-[Dap]YDWV[Bip][Orn][NMeA][dL][Dab]LV[Thr(3ξ)]CA-NH2; thioether N-14) noted as 0.15

Noted for CC(C)C[C@@H]1NC(=O)[C@H](CCN)NC(=O)[C@@H](CC(C)C)NC(=O)[C@H](CO)N(C)C(=O)[C@H](C(C)C)NC(=O)[C@H](Cc2ccc(-c3ccccc3)cc2)NC(=O)[C@H](C(C)C)NC(=O)[C@H](Cc2c[nH]c3ccccc23)NC(=O)[C@H](CC(=O)O)NC(=O)[C@H](Cc2ccc(O)cc2)NC(=O)[C@H](CC(N)=O)NC(=O)CSC[C@@H](C(=O)N[C@@H](C)C(N)=O)NC(=O)[C@H]([C@@H](C)O)NC(=O)[C@H](C(C)C)NC1=O [Compound 1370] ({CH2CO}-NYDWV[Bip]V[NMeS][dL][Dab]LVTCA-NH2; thioether N-14) : its IC50 reads 0.01

---

# Target Under Test: PE-labeled human PD-L1-Ig binding to Jurkat cell line over-expressing human PD-1 (Jurkat-PD-1) (Homo sapiens, UniProt Q15116)
# Construct: expressed in transfected cells; host or cells: Jurkat
# Sequence (Q15116 25-288): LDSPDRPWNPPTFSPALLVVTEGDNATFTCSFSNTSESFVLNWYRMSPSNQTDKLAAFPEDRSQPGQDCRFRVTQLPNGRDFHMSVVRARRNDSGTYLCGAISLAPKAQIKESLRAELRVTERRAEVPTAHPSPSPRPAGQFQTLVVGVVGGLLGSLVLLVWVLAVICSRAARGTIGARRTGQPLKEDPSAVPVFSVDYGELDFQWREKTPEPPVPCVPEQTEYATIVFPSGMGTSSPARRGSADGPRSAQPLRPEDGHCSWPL
# Method Notes: Jurkat-PD-1 Cell Binding High-Content Screening Assay (CBA): Method 1
# Test Parameters: Jurkat-hPD-1 cells, PE-labeled PD-L1-Ig 20 nM final; read-out: Jurkat HPDL1 PD1 IC50 (uM) (Method 1)
Bridge positions count the residues as written; N and C are the ends. Square brackets hold non-standard residues; d marks the D form. Peptide text beside a SMILES is read from it. Bip = N[C@@H](Cc1ccc(-c2ccccc2)cc1)C(=O)O; Phe(2-CN) = N#Cc1ccccc1C[C@H](N)C(=O)O; 4Pal = N[C@@H](Cc1ccncc1)C(=O)O; NMeA = CN[C@@H](C)C(=O)O; Orn = NCCC[C@H](N)C(=O)O; dNMeA = CN[C@H](C)C(=O)O; Dab = NCC[C@H](N)C(=O)O
Labelling field: enter Fulfilled if recorded IC50 is less than 0.1 µM. Enter Not fulfilled if it equals or exceeds that cut-off.

Lab note: confirm whether the reported IC50 for this compound is below 0.1 µM, equality not counting. compound: CC(C)C[C@@H]1NC(=O)[C@H](Cc2c[nH]c3ccccc23)NC(=O)[C@H](CC(=O)O)NC(=O)[C@H](Cc2ccc(O)cc2)NC(=O)[C@H](Cc2ccccc2)NC(=O)CSC[C@@H](C(=O)NCC(N)=O)NC(=O)[C@H](CO)NC(=O)[C@H](C(C)C)NC(=O)[C@H](CC(C)C)NC(=O)[C@H](CC(N)=O)NC(=O)CNC(=O)[C@@H](C)N(C)C(=O)[C@H](C(C)C)NC(=O)[C@H](Cc2ccc(-c3ccccc3)cc2)NC1=O [Compound 1721] ({CH2CO}-FYDWL[Bip]V[dNMeA]GNLVSCG-NH2; thioether N-14) Not fulfilled

Hi there! Is IC50 for CC(C)C[C@@H]1NC(=O)[C@H](CCN)NC(=O)[C@@H](CC(C)C)NC(=O)[C@H](C)N(C)C(=O)[C@H](CCCNC(=N)N)NC(=O)[C@H](Cc2ccc(-c3ccccc3)cc2)NC(=O)[C@H](C(C)C)NC(=O)[C@H](Cc2c[nH]c3ccccc23)NC(=O)[C@H](CC(=O)O)NC(=O)[C@H](Cc2ccc(O)cc2)NC(=O)[C@H](CCC(N)=O)NC(=O)CSC[C@@H](C(=O)N[C@@H](C)C(N)=O)NC(=O)[C@H]([C@@H](C)O)NC(=O)[C@H](C(C)C)NC1=O [Compound 1056] ({CH2CO}-QYDWV[Bip]R[NMeA][dL][Dab]LVTCA-NH2; thioether N-14) below 0.1 µM, do you know? Fulfilled

Please let me know if CC(C)C[C@@H]1NC(=O)CSC[C@@H](C(=O)NCC(N)=O)NC(=O)[C@H](CO)NC(=O)[C@H](C(C)C)NC(=O)[C@H](CC(C)C)NC(=O)[C@H](CCCNC(=N)N)NC(=O)[C@@H](Cc2ccccc2)NC(=O)[C@H](C)N(C)C(=O)[C@H](CCCNC(=N)N)NC(=O)[C@H](Cc2ccc(-c3ccccc3)cc2)NC(=O)[C@H](C(C)C)NC(=O)[C@H](Cc2c[nH]c3ccccc23)NC(=O)[C@H](CC(=O)O)NC(=O)[C@H](Cc2ccc(O)cc2)NC1=O [Compound 1024] ({CH2CO}-LYDWV[Bip]R[NMeA][dF]RLVSCG-NH2; thioether N-14) shows IC50 below 0.1 µM. Not fulfilled

Quick check: does CC(C)C[C@@H]1NC(=O)[C@H](CC(N)=O)NC(=O)[C@@H](CC(C)C)NC(=O)[C@H](C)N(C)C(=O)[C@H](CCC(=O)O)NC(=O)[C@H](Cc2ccc(-c3ccccc3)cc2)NC(=O)[C@H](C(C)C)NC(=O)[C@H](Cc2c[nH]c3ccccc23)NC(=O)[C@H](CC(=O)O)NC(=O)[C@H](Cc2ccc(O)cc2)NC(=O)[C@H](Cc2ccncc2)NC(=O)CSC[C@@H](C(N)=O)NC(=O)[C@H]([C@@H](C)O)NC(=O)[C@H](C(C)C)NC1=O [Compound 1631] ({CH2CO}-[4Pal]YDWV[Bip]E[NMeA][dL]NLVTC-NH2; thioether N-14) have IC50 under 0.1 µM? Not fulfilled

Dear reviewer, please state whether CC(C)C[C@@H]1NC(=O)[C@H](CCCN)NC(=O)[C@@H](CC(C)C)NC(=O)[C@H](C)N(C)C(=O)[C@H](CCCNC(=N)N)NC(=O)[C@H](Cc2ccc(-c3ccccc3)cc2)NC(=O)[C@H](C(C)C)NC(=O)[C@H](Cc2c[nH]c3ccccc23)NC(=O)[C@H](CC(=O)O)NC(=O)[C@H](Cc2cnc[nH]2)NC(=O)[C@H](Cc2ccccc2)NC(=O)CSC[C@@H](C(=O)N[C@@H](C)C(N)=O)NC(=O)[C@H]([C@@H](C)O)NC(=O)[C@H](C(C)C)NC1=O [Compound 1129] ({CH2CO}-FHDWV[Bip]R[NMeA][dL][Orn]LVTCA-NH2; thioether N-14) has IC50 strictly beneath 0.1 µM. Fulfilled

Please indicate whether the reported IC50 of CC(C)C[C@@H]1NC(=O)[C@H](CCN)NC(=O)[C@@H](CC(C)C)NC(=O)[C@H](C)N(C)C(=O)[C@H]([C@@H](C)O)NC(=O)[C@H](Cc2ccc(-c3ccccc3)cc2)NC(=O)[C@H](C(C)C)NC(=O)[C@H](Cc2c[nH]c3ccccc23)NC(=O)[C@H](CC(=O)O)NC(=O)[C@H](Cc2ccc(O)cc2)NC(=O)[C@H](CC(N)=O)NC(=O)CSC[C@@H](C(=O)N[C@@H](C)C(N)=O)NC(=O)[C@H]([C@@H](C)O)NC(=O)[C@H](C(C)C)NC1=O [Compound 1300] ({CH2CO}-NYDWV[Bip]T[NMeA][dL][Dab]LVTCA-NH2; thioether N-14) is strictly below 0.1 µM. Fulfilled

I wonder whether CC(C)C[C@@H]1NC(=O)[C@H](Cc2c[nH]c3ccccc23)NC(=O)[C@H](CC(=O)O)NC(=O)[C@H](Cc2ccccc2C#N)NC(=O)[C@H](Cc2ccccc2)NC(=O)CSC[C@@H](C(=O)N[C@@H](C)C(N)=O)NC(=O)[C@H](CO)NC(=O)[C@H](C(C)C)NC(=O)[C@H](CC(C)C)NC(=O)[C@H](CC(N)=O)NC(=O)[C@@H](C)NC(=O)[C@H](C)N(C)C(=O)[C@H](C(C)C)NC(=O)[C@H](Cc2ccc(-c3ccccc3)cc2)NC1=O [Compound 1806] ({CH2CO}-F[Phe(2-CN)]DWL[Bip]V[NMeA][dA]NLVSCA-NH2; thioether N-14) has IC50 below 0.1 µM. Can you tell? Not fulfilled
